# Experiment Summary: Human HepG2 cell viability assay in 384 well format
# Assay type: toxicity, cell-based
# Design: dose 125 nL, time 70.5 hour; concentration not given beside the values
# Condition Label: HepG2 cells, read-out: Inhibition
Assign cytotoxicity at 70.5 h to each entry below.
Express the result in % but write the number alone.

# lookup: cytotoxicity at 70.5 h of `COc1ccc(C[C@H]2CN(C(=O)c3ncccn3)CC[C@@H]2OC)cc1`
-6.01

# lookup: cytotoxicity at 70.5 h of `CC(=O)N1CCC(NC(=O)N2CCN(c3cnccn3)CC2)CC1`
1.14

# lookup: cytotoxicity at 70.5 h of `CS(=O)(=O)N[C@@H]1CN(Cc2ccncc2)C[C@@H]2CCCO[C@@H]21`
-9.37

# lookup: cytotoxicity at 70.5 h of CCc1noc(CN2CCN(CC(O)c3ccccc3)CC2)n1 (stereo not drawn)
-3.73

# lookup: cytotoxicity at 70.5 h of CCC1COCCN1C(=O)NCc1nccn1Cc1ccccc1 (stereo not drawn)
-2.58

# lookup: cytotoxicity at 70.5 h of `CCOCc1ccccc1NC(=O)NC1CCN(C(=O)OCC)CC1`
-5.57

# lookup: cytotoxicity at 70.5 h of `CN(C)C(=O)COCc1cncc2c1CCN(Cc1ccccc1)C2`
-3.3

# lookup: cytotoxicity at 70.5 h of `CN(C)c1nccnc1N1CC[C@@]2(O)CCNC[C@H]2C1`
9.65

# lookup: cytotoxicity at 70.5 h of Cc1cc(C)n(C2CCCN(C(=O)c3cnc4onc(C)c4c3)C2)n1 (stereo not drawn)
-7.95

# lookup: cytotoxicity at 70.5 h of `O=C(c1ncccn1)N1C[C@@H]2COC[C@]2(COc2cccnc2)C1`
-4.57

# lookup: cytotoxicity at 70.5 h of `O=C(NC[C@H]1OC[C@@H](N(CC2CC2)CC2CC2)[C@@H]1O)Nc1ccccc1`
-8.13

# lookup: cytotoxicity at 70.5 h of `Cc1ccc(S(=O)(=O)NCCNC(=O)c2ccoc2)cc1C`
-7.77

# lookup: cytotoxicity at 70.5 h of CC(C)n1cc(N2CC(C(=O)N3CCCC3)CC2=O)cn1 (stereo not drawn)
-6.71

# lookup: cytotoxicity at 70.5 h of `O=C(c1[nH]nc(C2CC2)c1Cl)N1CCN(C2CC2)CC1`
0.431

# lookup: cytotoxicity at 70.5 h of `COc1ncccc1CN1CC[C@H]2O[C@@H](c3nnc(C)o3)CC[C@H]21`
-6.07

# lookup: cytotoxicity at 70.5 h of COc1ccc(CNC(=O)NCC2CCOC2)c(C(F)(F)F)c1 (stereo not drawn)
-2.53

# lookup: cytotoxicity at 70.5 h of `COCC(=O)Nc1ccc(-c2noc([C@@H]3CCCN3C(C)C)n2)cn1`
-2.85

# lookup: cytotoxicity at 70.5 h of `COc1ncccc1CN1C[C@@H]2CN(c3ncccn3)C[C@@H]2C1`
18.1

# lookup: cytotoxicity at 70.5 h of `CCCS(=O)(=O)N1Cc2c(ncn2Cc2ccccc2)C[C@H]1C(=O)OC`
-5.74

# lookup: cytotoxicity at 70.5 h of CCOCCC(=O)N(C)CC1Cc2ccccc2CN1C (stereo not drawn)
-0.994

# lookup: cytotoxicity at 70.5 h of CC(NC(=O)NCCCN1CCc2ccccc2C1)c1nncn1C (stereo not drawn)
7.19

# lookup: cytotoxicity at 70.5 h of `COc1cc(C(=O)N2CCCS2(=O)=O)ccc1C`
18.4

# lookup: cytotoxicity at 70.5 h of COc1ccc(CNC2CCN(c3ccccc3)C2)c(OC)c1OC (stereo not drawn)
19.7
